Cited source: patent US6046329A

Molecular target: α1B receptor (Rattus norvegicus, UniProt P15823)
Construct: membranes from rat brain cortex; from tissue; host or cells: rat brain cortex membranes
Sequence (P15823 1-515): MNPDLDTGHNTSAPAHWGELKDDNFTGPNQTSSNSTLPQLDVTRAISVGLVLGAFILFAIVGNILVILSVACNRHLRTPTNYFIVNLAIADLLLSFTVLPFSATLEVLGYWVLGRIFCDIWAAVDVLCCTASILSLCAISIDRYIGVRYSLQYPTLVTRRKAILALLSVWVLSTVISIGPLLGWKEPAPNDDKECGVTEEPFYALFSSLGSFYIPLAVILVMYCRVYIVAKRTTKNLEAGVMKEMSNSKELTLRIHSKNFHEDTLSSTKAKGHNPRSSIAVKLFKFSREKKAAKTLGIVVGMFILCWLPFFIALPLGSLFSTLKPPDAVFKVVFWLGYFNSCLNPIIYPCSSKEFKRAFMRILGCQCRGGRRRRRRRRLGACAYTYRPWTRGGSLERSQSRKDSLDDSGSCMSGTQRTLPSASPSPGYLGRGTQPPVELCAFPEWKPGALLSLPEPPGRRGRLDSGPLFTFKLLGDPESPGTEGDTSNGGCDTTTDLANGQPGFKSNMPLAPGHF
Experiment: Radioligand binding with [3H]prazosine (in the presence of WB 4101), affinity for α1B receptor subtype
Details: membranes from rat brain cortex, subtype-selective substances tested again in the presence of 3 nmol/l WB 4101, Cheng and Prusoff, read-out: Receptor affinity α1B, expressed in pKI values (converted)
measure: log10 of Ki (log10 of the value in nM)
Each number you see is log10 of Ki, and the unit inside the log is nM.

Look over these answered cases.
compound: Cc1c(NCCCN2CCN(c3cccc4c3OCC(CO)O4)CC2)n(C)c(=O)n(C)c1=O (centres unmarked)
log10 of Ki: 3.20
//
compound: COc1ccccc1N1CCN(CCCNc2c(C=NO)c(=O)n(C)c(=O)n2C)CC1
log10 of Ki: 1.70
//
compound: C=CCc1c(NCCCN2CCN(c3ccc(F)cc3OCC)CC2)n(C)c(=O)n(C)c1=O
log10 of Ki: 1.60
//
compound: COc1cc(Br)c(Br)cc1N1CCN(CCCNc2c(C)c(=O)n(C)c(=O)n2C)CC1
log10 of Ki: 0.70

Each compound below has a recorded value; state its log10 of Ki.
1. COc1cc([N+](=O)[O-])ccc1N1CCN(CCCNc2c(C)c(=O)n(C)c(=O)n2C)CC1
2. Cc1c(NCCCN2CCN(c3ccccc3O)CC2)n(C)c(=O)n(C)c1=O
3. CCOc1cc(F)ccc1N1CCN(CCCNc2c(Cc3c(NCCCN4CCN(c5ccc(F)cc5OCC)CC4)n(C)c(=O)n(C)c3=O)c(=O)n(C)c(=O)n2C)CC1
4. COc1ccccc1N1CCN(CCCNC2=CC(=O)N(C)S(=O)(=O)N2C)CC1

OUT:
2.40
1.30
0.00
2.10

----------
Molecular target: 5-HT1A receptor (Sus scrofa)
Construct: membranes from pig brain cortex; from tissue; host or cells: pig brain cortex membranes
Sequence (A0A4X1UTF5 1-422): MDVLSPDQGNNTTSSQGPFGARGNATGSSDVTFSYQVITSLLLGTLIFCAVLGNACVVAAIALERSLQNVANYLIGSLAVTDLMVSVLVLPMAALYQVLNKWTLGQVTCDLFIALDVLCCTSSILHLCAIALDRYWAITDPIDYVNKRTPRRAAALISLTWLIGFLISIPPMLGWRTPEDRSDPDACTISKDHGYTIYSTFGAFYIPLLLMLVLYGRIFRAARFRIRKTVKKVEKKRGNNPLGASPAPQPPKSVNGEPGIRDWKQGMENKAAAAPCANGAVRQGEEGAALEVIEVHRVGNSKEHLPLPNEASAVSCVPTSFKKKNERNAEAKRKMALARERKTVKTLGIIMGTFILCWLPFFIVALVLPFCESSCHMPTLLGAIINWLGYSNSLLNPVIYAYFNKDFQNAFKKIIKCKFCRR
Assay: Radioligand binding with [3H]8-OH-DPAT, affinity for 5-HT1A receptor
Settings: membranes from pig brain cortex, IC50 corrected according to Cheng and Prusoff, read-out: Receptor affinity 5-HT1A, expressed in pKI values (converted)
Would you kindly list Ki for each of these compounds?
One number for each entry, in nM.

Look over these answered cases.
compound: Cc1c(NCCCN2CCN(c3cccc4c3OCC(CO)O4)CC2)n(C)c(=O)n(C)c1=O (stereo not shown)
Ki / nM: 0.2
--
compound: COc1cc([N+](=O)[O-])ccc1N1CCN(CCCNc2c(C)c(=O)n(C)c(=O)n2C)CC1
Ki / nM: 200
--
compound: CCOc1cc(F)ccc1N1CCN(CCCNc2c(Cc3c(NCCCN4CCN(c5ccc(F)cc5OCC)CC4)n(C)c(=O)n(C)c3=O)c(=O)n(C)c(=O)n2C)CC1
Ki / nM: 39.8

Entry C=CCc1c(NCCCN2CCN(c3ccc(F)cc3OCC)CC2)n(C)c(=O)n(C)c1=O , Ki reported as 0.794

----------
Would you kindly list Ki for each of these molecules?
biological target: α1A receptor (Rattus norvegicus, UniProt P43140); construct: membranes from rat brain cortex; from tissue; host or cells: rat brain cortex membranes; assay: Radioligand binding with [3H]prazosine, affinity for α1A receptor subtype; conditions: membranes from rat brain cortex, IC50 corrected according to Cheng and Prusoff, read-out: Receptor affinity α1A, expressed in pKI values (converted)
One number for each entry, in nM.

Look over these answered cases.
substance.smiles: CCOc1cc(F)ccc1N1CCN(CCCNc2c(Cc3c(NCCCN4CCN(c5ccc(F)cc5OCC)CC4)n(C)c(=O)n(C)c3=O)c(=O)n(C)c(=O)n2C)CC1
units.symbol: nM
Ki: 1
--
substance.smiles: C=CCc1c(NCCCN2CCN(c3ccc(F)cc3OCC)CC2)n(C)c(=O)n(C)c1=O
units.symbol: nM
Ki: 0.631
--
substance.smiles: COc1cc(N)ccc1N1CCN(CCCNc2c(C)c(=O)n(C)c(=O)n2C)CC1
units.symbol: nM
Ki: 100
--
substance.smiles: COc1ccccc1N1CCN(CCCNC(=O)c2cc(=O)n(C)c(=O)n2C)CC1
units.symbol: nM
Ki: 5.01

Each molecule below has a recorded value; state its Ki.
1. CCOc1ccccc1N1CCN(CCCNc2c(CCC#N)c(=O)n(C)c(=O)n2C)CC1
2. COc1ccccc1N1CCN(CCCNC2=CC(=O)N(C)S(=O)(=O)N2C)CC1
3. COc1ccccc1N1CCN(CCCNc2c(Cc3c(NCCCN4CCN(c5ccccc5OC)CC4)n(C)c(=O)n(C)c3=O)c(=O)n(C)c(=O)n2C)CC1

OUT:
0.501
6.31
0.398

----------
biological target: α1A receptor (Rattus norvegicus, UniProt P43140); construct: membranes from rat brain cortex; from tissue; host or cells: rat brain cortex membranes; assay: Radioligand binding with [3H]prazosine, affinity for α1A receptor subtype; settings: membranes from rat brain cortex, IC50 corrected according to Cheng and Prusoff, read-out: Receptor affinity α1A, expressed in pKI values (converted)
measure: log10 Ki (log10 of the value in nM)
Each number you see is log10 of Ki, and the unit inside the log is nM.

Look over these answered cases.
molecule: CCOC(=O)c1c(NCCCN2CCN(c3ccccc3OC)CC2)n(C)c(=O)n(C)c1=O [Compound 12]
log10 Ki: 1.40

molecule: COc1cc(Br)c(Br)cc1N1CCN(CCCNc2c(C)c(=O)n(C)c(=O)n2C)CC1 [Compound 1]
log10 Ki: 0.70

molecule: COc1cc([N+](=O)[O-])ccc1N1CCN(CCCNc2c(C)c(=O)n(C)c(=O)n2C)CC1 [Compound 14]
log10 Ki: 2.40

molecule: COc1ccccc1N1CCN(CCCNc2c(OC)c(=O)n(C)c(=O)n2C)CC1 [Compound 17]
log10 Ki: 1.70

molecule: Cn1c(NCCCN2CCN(c3cccc4c3OCC(CO)O4)CC2)c(Cc2c(NCCCN3CCN(c4cccc5c4OCC(CO)O5)CC3)n(C)c(=O)n(C)c2=O)c(=O)n(C)c1=O (stereo not shown) [Compound 10]
log10 Ki: 0.90

Entry COc1ccccc1N1CCN(CCCNc2c(C=NO)c(=O)n(C)c(=O)n2C)CC1 [Compound 16] , log10 Ki reported as 0.30

----------
Target: α1A receptor (Rattus norvegicus)
Construct: membranes from rat brain cortex; from tissue; host or cells: rat brain cortex membranes
Sequence (P43140 1-466): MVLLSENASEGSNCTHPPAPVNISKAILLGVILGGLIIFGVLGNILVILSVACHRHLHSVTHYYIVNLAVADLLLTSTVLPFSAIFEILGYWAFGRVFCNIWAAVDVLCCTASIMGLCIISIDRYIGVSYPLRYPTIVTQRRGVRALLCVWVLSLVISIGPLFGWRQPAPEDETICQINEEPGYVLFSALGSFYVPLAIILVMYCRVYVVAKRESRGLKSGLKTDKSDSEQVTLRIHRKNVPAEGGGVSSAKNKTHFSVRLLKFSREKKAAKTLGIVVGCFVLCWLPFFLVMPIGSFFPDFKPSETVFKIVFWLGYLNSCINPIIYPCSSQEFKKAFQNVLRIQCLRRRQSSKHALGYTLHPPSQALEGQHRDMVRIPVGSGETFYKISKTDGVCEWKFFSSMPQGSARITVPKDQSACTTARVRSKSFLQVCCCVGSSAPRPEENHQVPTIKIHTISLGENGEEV
Test: Radioligand binding with [3H]prazosine, affinity for α1A receptor subtype
Details: membranes from rat brain cortex, IC50 corrected according to Cheng and Prusoff, read-out: Receptor affinity α1A, expressed in pKI values (converted)
Would you kindly list Ki for each of these molecules?
Give bare numbers, in nM.

Look over these answered cases.
molecule: COc1ccccc1N1CCN(CCCNc2cc(=S)n(C)c(=O)n2C)CC1
assay.system: α1A receptor (Rattus norvegicus)
units.symbol: nM
Ki: 31.6

molecule: Cc1c(NCCCN2CCN(c3ccccc3O)CC2)n(C)c(=O)n(C)c1=O
assay.system: α1A receptor (Rattus norvegicus)
units.symbol: nM
Ki: 20

molecule: CON=Cc1c(NCCCN2CCN(c3ccccc3OC)CC2)n(C)c(=O)n(C)c1=O
assay.system: α1A receptor (Rattus norvegicus)
units.symbol: nM
Ki: 5.01

In the following, a different molecule is considered.
Entry Cc1c(NCCCN2CCN(c3cccc4c3OCC(CO)O4)CC2)n(C)c(=O)n(C)c1=O (stereo not shown) , Ki reported as 2
